- Tested on: ATP;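 further: ATP exposure 15 min at 22 °C before imaging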
- ASSAY METHOD TEXT: switch fluorescence ratio, 500 uM ATP over buffer (Cy3 cluster intensity, sum of 5 cycles each) (fold (ratio)); higher = stronger signal-on switching upon ATP binding; sequences stand for … in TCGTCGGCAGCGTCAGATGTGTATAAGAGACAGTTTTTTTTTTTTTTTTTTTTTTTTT…TC
- TEST CONTEXT: aptamer strand: ATP DNA aptamer (quencher-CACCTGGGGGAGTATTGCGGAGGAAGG + anchor), 100 nM annealed; ATP concentration: 500 uM
READOUT LABEL: switch fluorescence ratio

INSERT INTO assay_data (construct_sequence, measured_value) VALUES
  ('CAGACCCCAT', 1.06),
  ('TGTTTTAGTT', 1.01),
  ('GTTTGATCTG', 0.959),
  ('GGAAAGTTGG', 0.996),
  ('GGGGGCACTT', 1.01),
  ('AACATTTTTC', 1.01),
  ('GCGGGGGACT', 0.997),
  ('AGAACAGGTG', 3.18),
  ('TGGGGGAAGA', 1.03),
  ('ACTCAGCGCG', 1.08),
  ('AATAATGTTC', 0.98),
  ('TTCTCGGTTT', 1.02),
  ('GCGGGCCCTT', 1.01),
  ('ATGGTTTCGA', 0.982),
  ('ACGGAAGTGC', 1.12),
  ('GCCGGTCTGT', 1.01),
  ('TGATTATTTT', 0.991),
  ('TAGATGGTTT', 0.97),
  ('ATGGGGGAAC', 0.975),
  ('TTAGAGGGGA', 0.985);
